Molecular target: T1, SGK
T1 chain: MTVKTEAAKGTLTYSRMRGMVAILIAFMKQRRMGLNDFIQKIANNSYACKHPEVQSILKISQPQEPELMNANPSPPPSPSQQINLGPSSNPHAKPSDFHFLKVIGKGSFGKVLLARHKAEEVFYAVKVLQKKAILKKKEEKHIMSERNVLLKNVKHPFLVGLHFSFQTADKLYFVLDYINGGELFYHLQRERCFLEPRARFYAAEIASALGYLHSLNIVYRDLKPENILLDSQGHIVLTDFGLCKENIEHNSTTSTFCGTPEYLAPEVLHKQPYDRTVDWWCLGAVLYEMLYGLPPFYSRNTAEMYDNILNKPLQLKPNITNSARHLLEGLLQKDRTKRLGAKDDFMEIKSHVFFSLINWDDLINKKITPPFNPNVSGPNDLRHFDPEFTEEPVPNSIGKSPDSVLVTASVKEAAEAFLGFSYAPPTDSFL
Assay: in vitro SGK kinase activity assay, 33P-ATP, Flash Plate
observation type: Ki (µM)

[a] VELDPEFEPRARERTYSFGH [Peptide 1]
[b] VELDPEFEPRARERAYAFGH (Made from peptide 2 by changing Thr at position 15 to Ala) [Peptide 4]
Query string: Which of the two gives a bigger number for Ki: a or b ? Pick one and reply with its label.
Result string: b
